Origin of the recorded values: patent US20120010164A1

Tested on: subgenomic HCV Replicon in hepatoma (HuH-7) cells
ASSAY INFO: Assay for inhibition of HCV RNA replication (replicon, in situ ribonuclease protection SPA)
Format: cell-based
STUDY CONDITIONS: Hepatitis C virus, HuH-7 replicon cells, activity ranges
METRIC NAME: EC50

Here are 2 molecules together with their reported answers.
{"MOLECULE": "[N-]=[N+]=N[C@]1(CO)O[C@@H](n2cc(F)c3c(N)ncnc32)[C@@H](F)[C@@H]1O", "METRIC NAME": "EC50", "RESULT": "20 to 100 µM"}
{"MOLECULE": "[N-]=[N+]=N[C@]1(CO)OC(n2cnc3c(N)ncnc32)[C@@H](F)[C@@H]1O (stereo partly drawn)", "METRIC NAME": "EC50", "RESULT": "> 100 µM"}

Can you look up the measured EC50 of [N-]=[N+]=N[C@]1(CO)O[C@@H](n2ccc3c(N)ncnc32)[C@@H](F)[C@@H]1O for me?
< 20 µM
